Below are Ki values measured for Sodium-dependent dopamine transporter (Rattus norvegicus, UniProt P23977).

{"columns": ["Compound", "Measured On", "Ki, nM"],
 "data": [
  ["CN1[C@@H]2CC[C@H]1C[C@@H](OC(c1ccccc1)c1ccc(F)c(F)c1)C2 (some centres undefined)", "Sodium-dependent dopamine transporter (Rattus norvegicus, UniProt P23977)", 27.9],
  ["Cc1cccc(C(O[C@H]2C[C@H]3CC[C@@H](C2)N3C)c2ccccc2)c1 (some centres undefined)", "Sodium-dependent dopamine transporter (Rattus norvegicus, UniProt P23977)", 78],
  ["CN1[C@@H]2CC[C@H]1C[C@@H](OC(c1ccc(F)cc1)c1cccc(C(F)(F)F)c1)C2 (some centres undefined)", "Sodium-dependent dopamine transporter (Rattus norvegicus, UniProt P23977)", 88.1],
  ["CN1[C@@H]2CC[C@H]1C[C@@H](OC(c1ccccc1)c1cccc([N+](=O)[O-])c1)C2 (some centres undefined)", "Sodium-dependent dopamine transporter (Rattus norvegicus, UniProt P23977)", 187]
]}
